- Tested on: SK-MEL-5 melanoma
- PROTOCOL DESCRIPTION: NCI tumour cell line growth inhibition, 48 h
Each entry gets false (0) if its TGI stays under 20 µM, and true (1) if its TGI is 20 µM or above.

• CCN(Cc1ccc(F)cc1)c1ccc(CO)c(F)c1 = true (1)
• O=C(NCCNCCCNC(=O)c1cc(-c2ccccc2)nc2ccccc12)c1cccc(O)c1O = false (0)
• CCn1c(SCC(=O)NNC(=S)Nc2ccc([N+](=O)[O-])cc2)nc2ccccc2c1=O = true (1)
• CNc1ccc2c(c1)[C@@]1(C)c3ccccc3[C@@H](C2)N1C = true (1)
• CN(C)CC(CC1=C(CC(CN(C)C)N(C)C)CCC1)N(C)C (centres undefined) = true (1)
• CCC(C)C1=C(OC(C)=O)[N+]2([O-])Oc3ccc(-c4c(OC(C)=O)c(OC(C)=O)c(-c5ccc(OC(C)=O)cc5)c(OC(C)=O)c4OC(C)=O)cc3OC2(C(C)CC)C(=O)N1OC(C)=O (centres undefined) = true (1)
• CC(=O)O[C@H]1[C@@H]2OC(=O)[C@@](O)(CC3CCCO3)[C@@H]2CC(=O)[C@](C)(O)CC/C=C(\C)CCC[C@@H]1C (some centres undefined) = true (1)
• COC(=O)c1sc(=S)sc1SCc1ccc(CSc2sc(=S)sc2C(=O)OC)cc1 = true (1)
• COc1cc(Nc2c(C#N)cnc3cc(OCCCN4CCN(C)CC4)c(OC)cc23)c(Cl)cc1Cl = false (0)
• O=C(Nc1cccc(-n2cc(-c3ccncc3)c(-c3ccc(Cl)c(O)c3)n2)c1)c1ccc(N2CCOCC2)c(C(F)(F)F)c1 = false (0)
• COc1ccc2c(=O)cc(-c3ccncc3)oc2c1OC = true (1)
• Cc1c(N2C(=O)CS(=O)(=O)C2c2cccc(Oc3ccccc3)c2)c(=O)n(-c2ccccc2)n1C (centres undefined) = true (1)
